We begin with a simple list: items and their reported target mRNA inhibition.
# system-under-test: DGAT2
# protocol-conditions: ASO, HepG2, 0.12 µM
After the bases stand the sugars from the 5' end (letter, count) and the backbone: PS all phosphorothioate, else s phosphorothioate and o phosphodiester by linkage. Methylation of C is not given here. e = 2'-O-(2-methoxyethyl) (MOE); d = 2'-deoxy (DNA)

sequence_code="TAGCATTGCCACTCCCATTC (sugars e2 d13 e5, PS)" system_under_test=DGAT2 quantity="target mRNA inhibition" measured_result=60%

stdin: Which target mRNA inhibition reading was recorded for the sequence TTGGAGTAGGGCACCAGCCC (sugars e5 d10 e5, PS) ?
stdout: 16%

stdin: I am curious: what target mRNA inhibition value has been reported for CCACTCCCATTCTTTGAAAG (sugars e5 d10 e5, PS) ?
stdout: 34%

---

# system-under-test: MALAT1
# protocol-conditions: ASO, A431, 0.005 µM
After the bases stand the sugars from the 5' end (letter, count) and the backbone: PS all phosphorothioate, else s phosphorothioate and o phosphodiester by linkage. Methylation of C is not given here. k = constrained ethyl (cEt); d = 2'-deoxy (DNA)
quantity: target mRNA inhibition
Units required after the number.

sequence_code="CAATTAATGCTAGTCC (sugars k3 d10 k3, PS)" system_under_test=MALAT1 quantity="target mRNA inhibition" measured_result=28%
sequence_code="CCTTTACACCTCAGTA (sugars k3 d10 k3, PS)" system_under_test=MALAT1 quantity="target mRNA inhibition" measured_result=13%

stdin: Recall the recorded target mRNA inhibition for ATGACCCTACTGAAGA (sugars k3 d10 k3, PS) with MALAT1 and state it.
stdout: 15%

stdin: Could you share what target mRNA inhibition was measured for CATCAAGGATGTATAT (sugars k3 d10 k3, PS) , tested on MALAT1?
stdout: -4%

---

# system-under-test: IRF5
# protocol-conditions: ASO, KARPAS-229, 4 µM
After the bases stand the sugars from the 5' end (letter, count) and the backbone: PS all phosphorothioate, else s phosphorothioate and o phosphodiester by linkage. Methylation of C is not given here. e = 2'-O-(2-methoxyethyl) (MOE); k = constrained ethyl (cEt); d = 2'-deoxy (DNA)
Assign class 1 whenever target mRNA inhibition does not fall below 30%; assign class 0 whenever it does.

Consider the following illustrative entries.
sequence_code="TTATCTCCGTCCTGGC (sugars kkkddddddddkekek, PS)" discrete_label="class 0"
sequence_code="GTCTAGTGTCATGGAA (sugars kddddddddddkekek, PS)" discrete_label="class 1"
sequence_code="ATGAGTCATGGGCTGA (sugars kdddddddddkekeke, PS)" discrete_label="class 0"
sequence_code="TCCAATTTTGCATTCC (sugars kddddddddddkekek, PS)" discrete_label="class 1"

stdin: Confirm if target mRNA inhibition reported for the sequence ACATCTCCACATCAGT (sugars k2 d9 e3 k2, PS) is 30% or above.
stdout: class 1

stdin: # check: target mRNA inhibition of GGTTCTTGGACTCTCA (sugars kkdddddddddkdkdk, PS) is greater than or equal to 30%
stdout: class 0

stdin: Entry TGCAACATCCATCAAT (sugars k3 d10 k2 d1, PS) : is its target mRNA inhibition no less than 30%?
stdout: class 0

stdin: Is reported target mRNA inhibition greater than or equal to 30% here: GTCTTTGAGGTCTGGG (sugars kkddddddddkekekk, PS)
stdout: class 1

stdin: Threshold query (target mRNA inhibition >= 30%) on CAGGTTCTTGGACTCT (sugars kdddddddddkekeke, PS)
stdout: class 0

stdin: Dear colleague, could you confirm whether GTTCTTGGACTCTCAA (sugars kddddddddddkekek, PS) has target mRNA inhibition at or above 30%?
stdout: class 1
